# EXPERIMENTAL PROTOCOL: Cmax in Sprague-Dawley Rattus norvegicus (rat) at 10 mg/kg, po
# Type: ADME, organism-based
# Parameters: dose 10 mg/kg, route oral
# SETTINGS: in vivo
RECORDED METRIC: Cmax (ng/mL)

1. COc1ccc2c(n1)C1(CO2)C(=O)N(Cc2ccc(C(F)(F)F)o2)c2ccccc21 (stereo unspecified) ... 12.7

---

# SYSTEM NAME: Sodium channel protein type 9 subunit alpha (Homo sapiens)
# Sequence (Q15858 whole entry): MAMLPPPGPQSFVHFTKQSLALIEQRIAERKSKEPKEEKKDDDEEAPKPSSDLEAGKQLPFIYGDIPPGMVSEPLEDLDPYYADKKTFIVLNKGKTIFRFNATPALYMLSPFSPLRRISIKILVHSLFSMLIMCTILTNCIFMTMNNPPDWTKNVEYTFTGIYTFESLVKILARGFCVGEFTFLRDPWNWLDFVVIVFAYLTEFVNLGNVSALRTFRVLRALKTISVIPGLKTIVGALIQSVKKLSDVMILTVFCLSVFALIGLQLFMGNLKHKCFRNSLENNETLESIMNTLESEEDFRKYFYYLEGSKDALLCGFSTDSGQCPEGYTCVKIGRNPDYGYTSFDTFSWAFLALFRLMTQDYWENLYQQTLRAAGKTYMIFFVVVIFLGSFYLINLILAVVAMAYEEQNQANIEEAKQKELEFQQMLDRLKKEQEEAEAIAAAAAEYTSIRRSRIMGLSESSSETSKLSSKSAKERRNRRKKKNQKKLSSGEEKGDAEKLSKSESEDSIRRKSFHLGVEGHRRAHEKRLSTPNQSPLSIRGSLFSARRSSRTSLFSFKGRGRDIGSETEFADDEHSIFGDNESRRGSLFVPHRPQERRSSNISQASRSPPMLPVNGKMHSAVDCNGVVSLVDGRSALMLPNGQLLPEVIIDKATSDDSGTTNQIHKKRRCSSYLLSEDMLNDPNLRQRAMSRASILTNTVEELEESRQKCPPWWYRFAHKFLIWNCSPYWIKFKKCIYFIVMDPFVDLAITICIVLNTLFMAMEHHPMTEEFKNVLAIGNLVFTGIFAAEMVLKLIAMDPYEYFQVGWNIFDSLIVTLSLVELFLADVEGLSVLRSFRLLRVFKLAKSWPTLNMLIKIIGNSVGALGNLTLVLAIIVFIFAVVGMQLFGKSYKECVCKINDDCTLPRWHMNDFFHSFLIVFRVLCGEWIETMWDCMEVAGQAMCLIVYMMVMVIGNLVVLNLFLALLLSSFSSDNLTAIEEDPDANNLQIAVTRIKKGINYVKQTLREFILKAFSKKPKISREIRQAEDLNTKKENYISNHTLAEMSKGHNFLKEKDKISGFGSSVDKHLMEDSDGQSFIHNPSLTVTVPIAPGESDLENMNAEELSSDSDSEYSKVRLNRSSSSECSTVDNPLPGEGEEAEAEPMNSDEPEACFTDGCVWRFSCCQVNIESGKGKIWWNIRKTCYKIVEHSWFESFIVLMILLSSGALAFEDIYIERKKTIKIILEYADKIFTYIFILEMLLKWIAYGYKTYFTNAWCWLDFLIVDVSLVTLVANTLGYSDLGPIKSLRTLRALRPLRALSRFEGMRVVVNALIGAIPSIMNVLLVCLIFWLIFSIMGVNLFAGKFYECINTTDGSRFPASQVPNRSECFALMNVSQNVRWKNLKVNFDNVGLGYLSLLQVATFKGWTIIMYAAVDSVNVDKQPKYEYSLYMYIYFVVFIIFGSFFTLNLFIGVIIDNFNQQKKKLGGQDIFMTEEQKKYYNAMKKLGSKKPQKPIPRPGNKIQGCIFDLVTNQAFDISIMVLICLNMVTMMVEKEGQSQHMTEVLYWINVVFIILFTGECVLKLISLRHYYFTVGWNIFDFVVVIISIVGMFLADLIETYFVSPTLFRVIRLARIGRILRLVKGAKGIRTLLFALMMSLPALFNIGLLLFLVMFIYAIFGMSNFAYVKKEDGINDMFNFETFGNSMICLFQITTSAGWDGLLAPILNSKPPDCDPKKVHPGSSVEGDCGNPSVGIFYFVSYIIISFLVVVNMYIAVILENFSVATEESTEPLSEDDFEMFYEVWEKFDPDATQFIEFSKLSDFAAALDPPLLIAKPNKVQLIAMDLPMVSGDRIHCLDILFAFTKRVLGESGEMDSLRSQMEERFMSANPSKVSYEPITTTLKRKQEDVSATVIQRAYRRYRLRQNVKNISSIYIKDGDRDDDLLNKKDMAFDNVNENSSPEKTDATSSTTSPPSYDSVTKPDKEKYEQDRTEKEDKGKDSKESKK
# EXPERIMENTAL PROTOCOL: Inhibition of Homo sapiens (human) NaV1.7 expressed in HEK293 cells assessed as decrease in [14C]guanidinium influx after 2 hr by liquid scintillation counting analysis
pIC50: −log10 of the molar value.
RECORDED METRIC: pIC50

1) COc1cc2c(cn1)OCC21C(=O)N(CC2CCCCO2)c2ccccc21 (stereo not given) ... 7.00
2) COCCOc1ccc2c(c1)OCC21C(=O)N(Cc2ccccn2)c2ccccc21 (stereo not given) ... 6.82
3) COc1ccc2c(c1)OCC21C(=O)N(CC2CCCCO2)c2ccccc21 (stereo not given) ... 8.00
4) COc1ccc2c(n1)C1(CO2)C(=O)N(Cc2ccc(C(F)(F)F)o2)c2ccccc21 (stereo not given) ... 6.89
5) COc1ccc2c(n1)C1(CO2)C(=O)N(Cc2ccc3c(c2)OCCO3)c2ccccc21 (stereo not given) ... 7.52
6) COc1cc2c(cc1OC)C1(CO2)C(=O)N(Cc2ccc(Cl)s2)c2ccccc21 (stereo not given) ... 6.15
7) COc1ccc2c(c1)OCC21C(=O)N(C[C@H]2CCCO2)c2ccccc21 (stereo not given in full) ... 6.96
8) COc1cc2c(cc1C)C1(CO2)C(=O)N(Cc2ccccn2)c2ccccc21 (stereo not given) ... 5.94
9) CCCCCN1C(=O)C2(COc3cc(F)c(F)cc32)c2ccccc21 (stereo not given) ... 6.62
10) COc1cc2c(cn1)OCC21C(=O)N(C[C@@H]2CCCO2)c2ccccc21 (stereo not given in full) ... 7.70
11) COc1ccc2c(c1)OCC21C(=O)N(Cc2ccccn2)c2ccccc21 (stereo not given) ... 8.10
12) COc1cc2c(cc1F)C1(CO2)C(=O)N(Cc2ccccn2)c2ccccc21 (stereo not given) ... 6.72
13) COc1ccc2c(n1)C1(CO2)C(=O)N(Cc2csc(C(C)C)n2)c2ccccc21 (stereo not given) ... 7.22
14) COc1cc2c(cc1F)C1(CO2)C(=O)N(Cc2ccc(C(F)(F)F)o2)c2ccccc21 (stereo not given) ... 6.37
